All figures here come from paper PMC8622523.

test system: HT29 (human colon carcinoma); assay: Cytotoxicity assay (Cell Counting Kit-8), HT29; type: cell-based; conditions: Homo sapiens, HT-29, 72 h, 72 h of drug treatment, means ± SD of 3 independent experiments
measurement_name: pIC50
pIC50 is a log-scale quantity: -log10 of the concentration expressed in molar.

Return reported pIC50; argument: CC1(C)CCCC2(C)C1CCC13CC(C(O)CC21)C(O)(CCl)C3O (stereo not drawn) [Compound 4]
4.90

More entries:
Return reported pIC50; argument: CC1(C)CCCC2(C)C1CCC13CC(C(O)CC12)C(CO)C3=O (stereo not drawn) [Compound 2]
5.56

Return reported pIC50; argument: CC1(C)CCCC2(C)C1CCC13CC(C(O)CC21)C(O)(CO)C3O (stereo not drawn) [Compound 3, 12α,15β,16β,17-tetrahydroxy-ent-kaurane]
4.85

Return reported pIC50; argument: CC1(C)CCCC2(C)C1CCC13CC(C(O)CC12)C(O)(CO)C3=O (stereo not drawn) [Compound 1, 12α,16β,17-trihydroxy-ent-kaur-15-one]
5.04

---

test system: U937 (human monoblastic leukemia); assay: Cytotoxicity assay (Cell Counting Kit-8), U937; assay type: cell-based; settings: 72 h of drug treatment; Cell Counting Kit-8; means ± SD of 3 independent experiments
measurement_name: IC50 (µM)
Response body: numeric value in µM, unit text excluded.

Return reported IC50; argument: CC1(C)CCCC2(C)C1CCC13CC(C(O)CC21)C(O)(CO)C3O (stereo not drawn) [Compound 3, 12α,15β,16β,17-tetrahydroxy-ent-kaurane]
6.73

Consider the record given below.
Return reported IC50; argument: CCc1c2c(nc3ccc(OC(=O)N4CCC(N5CCCCC5)CC4)cc13)-c1cc3c(c(=O)n1C2)COC(=O)[C@]3(O)CC [CPT-11, reference compound]
4.95

---

Test system: HT29 (human colon carcinoma)
Experiment: Cytotoxicity assay (Cell Counting Kit-8), HT29
Type: cell-based
Details: Homo sapiens, HT-29, 72 h, 72 h of drug treatment, means ± SD of 3 independent experiments
Method: A549 (human lung carcinoma), Hep-3B (human liver carcinoma), PC-3 (human prostate carcinoma), HT29 (human colon carcinoma), U937 (human monoblastic leukemia), and RAW 264.7 cells were purchased from the Food Industry Research and Development Institute (Hsinchu, Taiwan) and cultured in 10% heat-inactivated fetal bovine serum (FBS) in DMEM or RPMI-1640. Cell viability was determined by using Cell Counting Kit-8 (CCK-8; Dojindo, Rockville, MD, USA) according to the manufacturer’s instructions. […]
Reported values of IC50 for individual entries

Return reported IC50; argument: C=C1C2CC3C4(C)CCCC(C)(C)C4CCC3(CC2O)C1O (stereo not drawn) [Compound 9, 13α,15β-trihydroxy-ent-atis-16(17)-ene]
> 20 µM

Return reported IC50; argument: CC1(C)CCCC2(C)C1CCC13CC=C(CO)C1OC(=O)CC23 (centres unmarked) [Compound 11, sarcopetal-13(16)-en-17-ol-12,15-olide]
> 20 µM

Return reported IC50; argument: CC1(C)CCCC2(C)C1CCC13C(O)C(C(=O)CC21)C(O)(CO)C3O (centres unmarked)
> 20 µM

Return reported IC50; argument: CC1(C)CCCC2(C)C1CCC13CC(C(=O)CC21)C(O)(CO)C3O (stereo not drawn) [Compound 7, 15β,16β,17-trihydroxy-ent-kaur-12-one]
> 20 µM

Consider the record given below.
Return reported IC50; argument: C=C1C2CC3C4(C)CCCC(C)(C)C4CCC3(C1O)C(O)C2O (stereo not drawn) [Compound 10, 13α,14β,15β-trihydroxyl-ent-atis-16-ene]
> 20 µM
